study.system: T1, human CD8 on human pan T cells (human, UniProt P01732 22-235; P10966 22-210)
T1 construct: Native CD8 on the CD4-negative population of human pan T cells
T1 sequence (P01732 22-235, chain 1 of 2): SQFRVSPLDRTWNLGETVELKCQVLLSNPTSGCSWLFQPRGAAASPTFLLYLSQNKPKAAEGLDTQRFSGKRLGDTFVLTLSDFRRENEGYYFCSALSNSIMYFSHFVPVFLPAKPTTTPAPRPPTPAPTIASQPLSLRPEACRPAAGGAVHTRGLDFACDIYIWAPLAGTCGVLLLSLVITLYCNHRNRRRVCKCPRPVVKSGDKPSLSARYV
T1 sequence (P10966 22-210, chain 2 of 2): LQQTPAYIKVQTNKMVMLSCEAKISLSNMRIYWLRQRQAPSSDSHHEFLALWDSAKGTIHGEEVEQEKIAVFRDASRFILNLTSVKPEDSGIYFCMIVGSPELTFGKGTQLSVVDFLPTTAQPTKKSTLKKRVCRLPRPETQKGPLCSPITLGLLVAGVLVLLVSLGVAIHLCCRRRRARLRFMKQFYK
protocol: flow cytometry, 20 nM mAb on human pan T cells
Cell Binding to Human PanT Signal/Background (of CD4 negative population) for assorted binders
API note: the answer field is a bare number with no unit suffix.

Query block: Which measured Cell Binding to Human PanT Signal/Background (of CD4 negative population) value corresponds to CD8B324 (antibody, human IgG1, kappa, V domains shown, full-length human IgG1, kappa) VH: QVQLQQPGADLVKPGASVKLSCKASGYTSTSHWIHWVKQRPGQGLEWIGNIYPGSSSTNYNEKFKRMATLTVDTSSSTVYMVLSSLTSDDSAVYYCARHSPGHRDYAMDYWGLGTSVTVSS VL: DIVMTQSQKFMPTTVGDRVSITCKASQNVGTAVAWYQQKPGQSPKLLIASASNRYTGVPDRFTGSGSGTDFTLTISTMQSEDLADYFCQQYSTYPLTFGAGTKLEMKR ?
Result block: 1610

Query block: Next up: CD8B366 (antibody, human IgG1, kappa, V domains shown, full-length human IgG1, kappa) VH: EVQLQQSGPELVRPGASVKLSCTASGFNIKDDYIHWVKQRPEQGLEWIGRIDPANGNPRYAPKFQDKATLTADTSSNTAYLQLSSLTSEDTAVYYCARDDEGYYYFDVWGAGTSVTVSS VL: DIKMTQSPSYLAASPGETITINCRASKSISKYLAWYQEKPGKTNKVLIYSGSTLQSGIPSRFSGSGSGTDFTLTISSLEPEDFAIYYCQQHNEYPLTFGDGTRLEIKR
Result block: 318

Query block: One more binder: CD8B200 (antibody, human IgG1, kappa, V domains shown, full-length human IgG1, kappa) VH: EVQLQQSGAELVKPGASVKLSCKASGYTFTNYWIHWVKQRPGQGLEWIGNIDPSDSETHYNQKFKDKATLTVDKSSSTAYMQLISLTSEDSAVYYCASGLTGTGYYWGQGTTLTVSS VL: DIQMTQTTSSLSASLGDRVTITCRASQDISPYLNWYQQKPEGTIKLLIYYTSKLHSGVPSRFSGSGSGTDYSLTISNLEQEDIATYFCQQDNTLPYTFGSGTKLELKR
Result block: 1990
